Please respond with reported Kp for every item in the list.
- Procedure Details: Pharmacokinetic Test in Rats (Inhalation Administration)
- Assay Setup: rat, in vivo, inhaled or intranasal, male SD rats, single dose 0.03 mg/kg, read-out: Lung AUC0-t/plasma AUC0-t

Problem: Kp lookup needed for CC(C)(Cc1cccc([C@@]2(C)C(=O)Nc3nc(-c4nn(CCC(F)(F)C(F)(F)F)c5cc(Cl)cnc45)nc(N)c32)c1)C(=O)O [Compound 6-1] , thanks.
Solution: 659

Problem: Kp lookup needed for CC(C)(Cc1csc([C@]2(C)C(=O)Nc3nc(-n4c(=O)n(Cc5ccccc5F)c5cc(F)ccc54)nc(N)c32)n1)C(=O)O [Compound 38-1] , thanks.
Solution: 83.6

Problem: Kp lookup needed for CC(C)(Cc1csc([C@]2(C)C(=O)Nc3nc(-c4nc(CCC(F)(F)C(F)(F)F)n5ncccc45)nc(N)c32)n1)C(=O)O [Compound 3-1] , thanks.
Solution: 65

Problem: Kp lookup needed for CC(C)(Cc1csc([C@]2(C)C(=O)Nc3nc(-n4nc(CCC(F)(F)C(F)(F)F)c5cc(F)ccc54)nc(N)c32)n1)C(=O)O [Compound 17-1] , thanks.
Solution: 48.4

Problem: Kp lookup needed for CC(C)(Cc1csc([C@]2(C)C(=O)Nc3nc(-n4c(=O)n(CCC(F)(F)C(F)(F)F)c5cc(F)ccc54)nc(N)c32)n1)C(=O)O [Compound 31-1] , thanks.
Solution: 97.9

Problem: Kp lookup needed for CC(C)(Cc1csc(C2(C)C(=O)Nc3nc(-n4nc(Cc5cccc(F)c5F)c5ncc(F)cc54)nc(N)c32)n1)C(=O)O (single isomer, unassigned) [Compound 36-1] , thanks.
Solution: 49.1

Problem: Kp lookup needed for CC(C)(Cc1csc([C@]2(C)C(=O)Nc3nc(-c4nc(Cc5ccccc5F)n5ncccc45)nc(N)c32)n1)C(=O)O [Compound 19-1] , thanks.
Solution: 245

Problem: Kp lookup needed for CC(C)(Cc1csc([C@]2(C)C(=O)Nc3nc(-c4nc(CCC(F)(F)C(F)(F)F)n5cc(F)ccc45)nc(N)c32)n1)C(=O)O [Compound 45-1] , thanks.
Solution: 43.4

Problem: Kp lookup needed for CC(C)(Cc1csc([C@]2(C)C(=O)Nc3nc(-n4nc(CCC(F)(F)C(F)(F)F)c5cc(Cl)ccc54)nc(N)c32)n1)C(=O)O (single isomer, unassigned) [Compound 4-1] , thanks.
Solution: 77.1

---

- Procedure Details: Pharmacokinetic Test in Rats (Inhalation Administration)
- Assay Setup: rat, in vivo, inhaled or intranasal, male SD rats, single dose 0.03 mg/kg, lung tissue, read-out: Lung AUC0-t
- Protocol: 4: Pharmacokinetic Test in Rats (Inhalation Administration) The samples were analyzed quantitatively by LC-MS/MS.
Binary classification by AUC(0-t), with 600 ng·h/mL as an inclusive lower bound for true; all other cases are false.

Problem: Is AUC(0-t) for CC(C)(Cc1csc(C2(C)C(=O)Nc3nc(-n4nc(Cc5cccc(F)c5F)c5ncc(F)cc54)nc(N)c32)n1)C(=O)O (single isomer, unassigned) at or above 600 ng·h/mL?
Solution: true

Problem: Is AUC(0-t) for CC(C)(Cc1csc([C@]2(C)C(=O)Nc3nc(-c4nc(CCC(F)(F)C(F)(F)F)n5cc(F)ccc45)nc(N)c32)n1)C(=O)O at or above 600 ng·h/mL?
Solution: true

Problem: Is AUC(0-t) for CC(C)(Cc1csc([C@]2(C)C(=O)Nc3nc(-n4nc(CCC(F)(F)C(F)(F)F)c5cc(Cl)ccc54)nc(N)c32)n1)C(=O)O (single isomer, unassigned) at or above 600 ng·h/mL?
Solution: true

Problem: Is AUC(0-t) for CC(C)(Cc1csc([C@]2(C)C(=O)Nc3nc(-c4nn(CCC(F)(F)C(F)(F)F)c5ncccc45)nc(N)c32)n1)C(=O)O [Control compound 1, reference compound] at or above 600 ng·h/mL?
Solution: false
